B1: library; numbered along this chain (parent)
chain: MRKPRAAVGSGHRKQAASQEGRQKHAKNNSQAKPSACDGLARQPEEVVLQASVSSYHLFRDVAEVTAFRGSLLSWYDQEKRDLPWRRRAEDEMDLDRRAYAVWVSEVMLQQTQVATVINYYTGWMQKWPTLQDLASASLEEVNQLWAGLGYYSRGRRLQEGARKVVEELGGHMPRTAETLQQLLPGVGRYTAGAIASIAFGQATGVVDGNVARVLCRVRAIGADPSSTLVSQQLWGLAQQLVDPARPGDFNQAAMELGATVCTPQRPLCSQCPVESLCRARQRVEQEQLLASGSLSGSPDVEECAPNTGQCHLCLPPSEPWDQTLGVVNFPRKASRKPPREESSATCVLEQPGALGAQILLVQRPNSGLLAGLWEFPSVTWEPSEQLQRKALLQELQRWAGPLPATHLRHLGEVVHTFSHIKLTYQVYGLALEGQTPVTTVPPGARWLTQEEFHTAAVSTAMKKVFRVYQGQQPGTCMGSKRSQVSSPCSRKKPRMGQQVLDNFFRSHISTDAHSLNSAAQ

variants of: B1; test: 8OG:A repair function score (normalized; synonymous = 0, nonsense = -1) (normalized log-likelihood score); higher = more repair activity (WT-like); conditions: with 8OG:A DNA repair reporter (GFP) in HEK-293 MUTYH KO cells;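 further: cells sorted at 72 h after reporter transfection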
8OG:A repair function score vs -0.2: at or above is Satisfied, below is Not satisfied.

Worked examples, 2 variants total:
{"mutation-annotation": "V114Y", "class-assignment": "Not satisfied"}
{"mutation-annotation": "A371P", "class-assignment": "Not satisfied"}

Ask: Is 8OG:A repair function score at least -0.2? Consider A67C
Result: Satisfied

Ask: Is 8OG:A repair function score at least -0.2? Consider V441A
Result: Satisfied

Ask: Is 8OG:A repair function score at least -0.2? Consider F505I
Result: Satisfied

Ask: Is 8OG:A repair function score at least -0.2? Consider C262T
Result: Not satisfied

Ask: Is 8OG:A repair function score at least -0.2? Consider R157W
Result: Satisfied

Ask: Is 8OG:A repair function score at least -0.2? Consider V465H
Result: Not satisfied

Ask: Is 8OG:A repair function score at least -0.2? Consider K481I
Result: Satisfied

Ask: Is 8OG:A repair function score at least -0.2? Consider V301Q
Result: Not satisfied
